Where do these numbers come from? They come from patent US20210002231A1.

Biological target: human MOPr (Homo sapiens, UniProt P35372);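 further: Emax relative to DAMGO as 100%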
Sequence (P35372 whole entry): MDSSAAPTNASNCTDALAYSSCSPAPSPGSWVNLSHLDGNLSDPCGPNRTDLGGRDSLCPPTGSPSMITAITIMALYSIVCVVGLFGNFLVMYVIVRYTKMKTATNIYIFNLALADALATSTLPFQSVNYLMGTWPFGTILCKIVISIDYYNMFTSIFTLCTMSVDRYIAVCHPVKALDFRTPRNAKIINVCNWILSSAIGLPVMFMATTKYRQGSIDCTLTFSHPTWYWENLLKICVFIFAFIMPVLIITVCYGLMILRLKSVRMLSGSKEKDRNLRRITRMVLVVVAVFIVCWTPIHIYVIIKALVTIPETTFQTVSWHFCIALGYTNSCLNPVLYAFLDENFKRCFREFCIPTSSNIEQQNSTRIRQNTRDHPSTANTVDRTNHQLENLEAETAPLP
Experiment: cell-based
Type: cell-based
Set-up: expressed in transfected cells; HEK293-Glo20F cells (cAMP)
Details: read-out: MOPr (cAMP) Emax
Protocol: Stimulation by endogenous RF-amide peptides or test compounds for [^35S]-GTPγS binding to membranes from CHO cells expressing human NPFF1R or NPFF2R, were examined as reported. 1.6. […] The cAMP responses were measured in presence of D-luciferin (1 mM).
Starred links: 1 amine or outer side, 2 acyl side, 3 side chain; linkers in the order of their positions; H or OH if unused. Non-standard residues stand in square brackets, D forms with d. Residues, ends and D or L forms follow the SMILES beside them. Nva(5-(4-Bn-piperidin-1-yl)) = N[C@@H](CCCN1CCC(Cc2ccccc2)CC1)C(=O)O; X1 = O=C1[C@@H](N[*:1])Cc2ccccc2CN1CCC(=O)[*:2]; Dmt = Cc1cc(O)cc(C)c1C[C@H](N)C(=O)O
test-readout: Emax (%)

molecule: Cc1cc(O)cc(C)c1C[C@H](N)C(=O)N[C@H](CCCNC(=N)N)C(=O)N[C@H]1Cc2ccccc2CN(CCC(=O)N[C@@H](CCCN2CCCCC2)C(=O)N[C@@H](Cc2ccccc2)C(N)=O)C1=O [KGFF08, H-Dmt-D-Arg-Aba-β-Ala-Apa-Phe-NH2]
observed: 102
--
molecule: Cc1cc(O)cc(C)c1C[C@H](N)C(=O)N[C@H](CCCCN)C(=O)N[C@H]1Cc2ccccc2CN(CCC(=O)N[C@@H](CCCN2CCC(Cc3ccccc3)CC2)C(=O)N[C@@H](Cc2ccccc2)C(N)=O)C1=O [DP0029, H-Dmt-D-Lys-Aba-β-Ala-Bpa-Phe-NH2] (H-[Dmt][dK][X1][Nva(5-(4-Bn-piperidin-1-yl))]F-NH2)
observed: 72
